# MEASUREMENT_TARGET: human A2a receptor (Homo sapiens)
# Construct: purchased Perkin-Elmer RBHA2AM400UA; host or cells: HEK293 cells, used as a membrane preparation
# Sequence (P29274 whole entry): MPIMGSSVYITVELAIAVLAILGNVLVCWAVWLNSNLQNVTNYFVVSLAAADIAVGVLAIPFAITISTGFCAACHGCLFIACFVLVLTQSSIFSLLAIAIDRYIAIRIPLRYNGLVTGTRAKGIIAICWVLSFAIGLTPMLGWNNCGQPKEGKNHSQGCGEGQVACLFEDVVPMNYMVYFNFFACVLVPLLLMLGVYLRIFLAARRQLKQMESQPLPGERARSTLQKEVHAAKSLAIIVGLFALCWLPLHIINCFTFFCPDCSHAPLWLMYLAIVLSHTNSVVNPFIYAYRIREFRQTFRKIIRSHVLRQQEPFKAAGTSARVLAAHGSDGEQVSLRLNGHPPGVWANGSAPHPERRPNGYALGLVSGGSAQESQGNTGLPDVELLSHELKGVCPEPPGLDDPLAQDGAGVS
# ASSAY_REMARKS: A2a receptor competition binding assay (Scintillation Proximity)
# PARTICULARS: membranes from HEK293 cells expressing human A2a receptor; 0.5 nM tritiated ligand; Cheng-Prusoff; read-out: A2a Ki
Counter-ions that a name gives are not always drawn.
// classify(record): look up Ki in ranges group 1 = under 8 nM, group 2 = from 8 nM up to 30 nM, group 3 = 30 nM and over

- MOLECULE: "COc1cccc2c1nc(N)n1cc(CN3Cc4ccc(F)cc4C3)nc21 [Ex-123]"
  LABEL: "group 2"
- MOLECULE: "COc1cccc2c1nc(N)n1cc(C(=O)N3CC[C@@H](OC)C3)nc21 [Ex-213]"
  LABEL: "group 2"
- MOLECULE: "COc1cccc2c1nc(N)n1cc(C(=O)N3CCC[C@@H]3C)nc21 [Ex-216]"
  LABEL: "group 2"
- MOLECULE: "C[C@H](NC(=O)c1cn2c(N)nc3c(F)cccc3c2n1)c1ccccc1 [Ex-296]"
  LABEL: "group 2"
- MOLECULE: "Nc1nc2c(F)cccc2c2nc(C(=O)NCc3ccccc3CN3CCN(c4ccccn4)CC3)cn12 [Ex-246]"
  LABEL: "group 2"
- MOLECULE: "COc1cccc2c1nc(N)n1cc(Cc3cccc(F)c3)nc21 [Ex-22]"
  LABEL: "group 1"
- MOLECULE: "Nc1nc2c(F)cccc2c2nc(Cc3ccccc3)cn12 [Ex-06]"
  LABEL: "group 1"
- MOLECULE: "COc1cccc2c1nc(N)n1cc(C(=O)N3CCOCC3CC(C)C)nc21 (stereo not shown) [Ex-186]"
  LABEL: "group 3"
- MOLECULE: "Nc1nc2ccccc2c2nc(-c3cccc(Br)c3)cn12 [Ex-105]"
  LABEL: "group 3"
- MOLECULE: "COc1cccc2c1nc(N)n1cc(C(=O)N3CCC(C)(C)CC3)nc21 [Ex-207]"
  LABEL: "group 1"
- MOLECULE: "COc1ccc(CNc2nc3c(F)cccc3c3nc(C(=O)N4Cc5ccc(Br)cc5C4)cn23)c(OC)c1 [Ex-164]"
  LABEL: "group 3"
- MOLECULE: "COc1cccc2c1nc(N)n1cc(Cn3cc(COC(C)=O)nn3)nc21 [Ex-99]"
  LABEL: "group 2"
- MOLECULE: "COc1cccc2c1nc(N)n1cc(C(=O)N3CCCC(C)CC3)nc21 (stereo not shown) [Ex-176]"
  LABEL: "group 2"
- MOLECULE: "CC(=O)N1CCC2(CCN(C(=O)c3cn4c(N)nc5c(F)cccc5c4n3)CC2)C1 [Ex-269]"
  LABEL: "group 3"
- MOLECULE: "COc1cccc2c1nc(N)n1cc(Cc3cccnc3N3CCOCC3)nc21 [Ex-43]"
  LABEL: "group 1"
- MOLECULE: "Nc1nc2c(F)ccc(Br)c2c2nc(Cc3ccccc3)cn12 [Ex-12]"
  LABEL: "group 1"
- MOLECULE: "COc1cccc2c1nc(N)n1cc(CNCc3ccccc3)nc21 [Ex-143]"
  LABEL: "group 1"
- MOLECULE: "Nc1nc2c(F)cccc2c2nc(C(=O)NCc3ccccc3N3CCNCC3)cn12 [Ex-261]"
  LABEL: "group 1"
- MOLECULE: "COc1cccc2c1nc(N)n1cc(C(=O)N3CC4CC4C3)nc21 (stereo not shown) [Ex-235]"
  LABEL: "group 1"
- MOLECULE: "Nc1nc2c(F)cccc2c2nc(CN3CCCN(c4ccccn4)CC3)cn12 [Ex-119]"
  LABEL: "group 3"
- MOLECULE: "Nc1nc2c(F)cccc2c2nc(Cc3ccccc3CN3CCN(c4ncccn4)CC3)cn12 [Ex-71]"
  LABEL: "group 1"
- MOLECULE: "Nc1nc2c(F)cccc2c2nc(CC3CCN(C(=O)c4cnccn4)CC3)cn12 [Ex-321]"
  LABEL: "group 3"
- MOLECULE: "COc1cccc2c1nc(N)n1cc(C(=O)N3CCCC4(CC4)C3)nc21 [Ex-242]"
  LABEL: "group 1"
- MOLECULE: "Nc1nc2c(F)cccc2c2nc(CCN3CCN(c4ccccn4)CC3)cn12 [Ex-138]"
  LABEL: "group 2"
- MOLECULE: "Cn1c(NC(=O)c2ccc(Cc3cn4c(N)nc5c(F)cccc5c4n3)cc2)nc2ccccc21 [Ex-86, formate]"
  LABEL: "group 3"
- MOLECULE: "COc1cccc2c1nc(N)n1cc(C(=O)N3CCC4OCCC43)nc21 (stereo not shown) [Ex-220]"
  LABEL: "group 2"
- MOLECULE: "Nc1nc2c(F)cccc2c2nc(Cc3ccc(-c4nnc(CN5CCOCC5)o4)cc3)cn12 [Ex-91]"
  LABEL: "group 3"
- MOLECULE: "COc1cccc2c1nc(N)n1cc(CN3CC(c4cccc(Cl)c4)C3)nc21 [Ex-144]"
  LABEL: "group 2"
- MOLECULE: "CCCN1CCCC2(CCN(C(=O)c3cn4c(N)nc5c(F)cccc5c4n3)CC2)C1 [Ex-279]"
  LABEL: "group 3"
- MOLECULE: "COc1ccc(-c2ccc(Cc3cn4c(N)nc5c(F)cccc5c4n3)cc2)cc1 [Ex-78]"
  LABEL: "group 3"

Where these numbers come from: patent US11498923B2
